# credit: patent US8129355B2

Each record here notes measured CC50.
Study system: GAL4 DBD (1-147)-CfEcR(DEF)/VP16AD-βRXREF-LmUSPEF (Choristoneura fumiferana, UniProt O77240)
Procedure text: 27-63 assay: luciferase reporter gene expression in stable CHO cell clone 27-63
Particulars: read-out: 27-63 LC50; average; dose response, three-parameter logistic model
Please respond with the number in µM and leave the unit unwritten.

Reference set (3 entries):
IN: Quick check: CC50 of Cc1cc(C)cc(C(=O)C2(NC(=O)c3ccc4c(c3)OCCO4)CCCC2)c1 ?
OUT: 4.88

IN: Do the same for COc1ccccc1C(=O)C1(NC(=O)c2cccc(OC)c2C)CCCCC1 please
OUT: 1.03

IN: Do the same for COc1cccc(C(=O)NC2(C(=O)c3cc(F)c(F)c(OC)c3)CCCC2)c1C please
OUT: 6.59

Next:
IN: Quick check: CC50 of CCc1c(OC)cccc1C(=O)NC1(C(=O)c2cc(C)cc(C)c2)CCCC1 ?
OUT: 1.52

* * *

Study system: GAL4 DBD (1-147)-CfEcR(DEF)/VP16AD-βRXREF-LmUSPEF (Choristoneura fumiferana, UniProt O77240)
Procedure text: 27-63 assay: luciferase reporter gene expression in stable CHO cell clone 27-63
Particulars: CHO, read-out: Fold Induction Average, 27-63 Assay (33 μM)
Measurement label: fold induction at 33 µM
Reply briefly: the number, and no unit.

IN: Quick check: fold induction at 33 µM of COc1cccc(C(=O)NC2(C(=O)c3cc(C)cc(C)c3)CCN(C(C)=O)CC2)c1C [Example 149] ?
OUT: 1

IN: Do the same for COc1ccc(C(=O)C2(NC(=O)c3cccc(OC)c3C)CCCCC2)cc1 [Example 46] please
OUT: 5

IN: Do the same for COc1cccc(C(=O)NC2(C(=O)c3cc(C)cc(C)c3)CCNCC2)c1C [Example 147] please
OUT: 1

IN: Do the same for COc1cccc(C(=O)NC2(C(=O)c3cc(C)cc(C)c3)CCS(=O)(=O)CC2)c1C [Example 62] please
OUT: 224

IN: Do the same for COc1cccc(C(=O)NC2(C(=O)c3cc(C)cc(C)c3)CCOCC2)c1C [Example 27] please
OUT: 2740

* * *

Study system: GAL4 DBD (1-147)-CfEcR(DEF)/VP16AD-βRXREF-LmUSPEF (Choristoneura fumiferana)
Sequence (O77240 191-513): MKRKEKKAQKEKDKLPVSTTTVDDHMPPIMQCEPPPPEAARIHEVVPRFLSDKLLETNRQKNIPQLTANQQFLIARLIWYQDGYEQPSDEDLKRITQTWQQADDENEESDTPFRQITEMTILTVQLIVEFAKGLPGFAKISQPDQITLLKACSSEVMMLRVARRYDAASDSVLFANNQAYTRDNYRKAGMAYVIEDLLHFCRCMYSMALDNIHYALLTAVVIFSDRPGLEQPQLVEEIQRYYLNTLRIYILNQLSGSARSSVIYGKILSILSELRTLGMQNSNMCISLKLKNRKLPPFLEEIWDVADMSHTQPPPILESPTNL
Sequence (P28702 296-455 partner limits assumed): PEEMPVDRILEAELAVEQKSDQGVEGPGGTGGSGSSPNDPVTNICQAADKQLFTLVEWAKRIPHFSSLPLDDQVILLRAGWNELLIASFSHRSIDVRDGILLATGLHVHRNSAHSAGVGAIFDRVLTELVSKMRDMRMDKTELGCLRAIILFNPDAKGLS
Procedure text: 27-63 assay: luciferase reporter gene expression in stable CHO cell clone 27-63
Particulars: read-out: 27-63 LC50; average; dose response, three-parameter logistic model
Each record here notes measured CC50.

Reference set (6 entries):
IN: What measured CC50 is associated with Cc1cc(C)cc(C(=O)C2(NC(=O)c3ccccc3C)CCCC2)c1 [Example 89] on GAL4 DBD (1-147)-CfEcR(DEF)/VP16AD-βRXREF-LmUSPEF (Choristoneura fumiferana)?
OUT: > 33 µM

IN: Do the same for COc1cc(C(=O)C2(NC(=O)c3cccc(OC)c3C)CCCC2)cc(OC)c1C [Example 65] please
OUT: > 20 µM

IN: Do the same for COc1cccc(C(=O)NC(C)(C(=O)c2ccc(C)cc2)C(C)C)c1C (stereo not drawn) [Example 33] please
OUT: > 33 µM

IN: Do the same for COc1cccc(C(=O)NC2(C(=O)c3cc(C)cc(C)c3)CC2)c1C [Example 13] please
OUT: > 33 µM

IN: Do the same for CCC(CC)(NC(=O)c1cccc(OC)c1C)C(=O)c1ccccc1 [Example 78] please
OUT: 6.54 µM

IN: Do the same for COc1cccc(C(=O)NC(C)(C(=O)c2cccc(C)c2)C(C)C)c1C (stereo not drawn) [Example 31] please
OUT: ~15 µM

Next:
IN: What measured CC50 is associated with COc1cccc(C(=O)NC(C)(C(=O)c2ccccc2)C(C)C)c1C (stereo not drawn) [Example 34] on GAL4 DBD (1-147)-CfEcR(DEF)/VP16AD-βRXREF-LmUSPEF (Choristoneura fumiferana)?
OUT: > 33 µM

IN: Do the same for COc1cccc(C(=O)NC2(C(=O)c3ccc(F)c(C)c3)CCCC2)c1C [Example 17] please
OUT: ~5.5 µM

IN: Do the same for CCC(CC)(NC(=O)c1cccc(OC)c1C)C(=O)c1ccc(C)cc1 [Example 77] please
OUT: > 33 µM

* * *

Study system: Bombyx mori EcR (VP16 fusion, switch construct CVBE) with 6XEcRE LacZ reporter (Bombyx mori, UniProt P49881)
Construct: expressed in transfected cells; host or cells: Human 293 kidney (HEK-293) cells, retrovirally infected, clone Z3
Sequence (P49881 86-606 limits assumed): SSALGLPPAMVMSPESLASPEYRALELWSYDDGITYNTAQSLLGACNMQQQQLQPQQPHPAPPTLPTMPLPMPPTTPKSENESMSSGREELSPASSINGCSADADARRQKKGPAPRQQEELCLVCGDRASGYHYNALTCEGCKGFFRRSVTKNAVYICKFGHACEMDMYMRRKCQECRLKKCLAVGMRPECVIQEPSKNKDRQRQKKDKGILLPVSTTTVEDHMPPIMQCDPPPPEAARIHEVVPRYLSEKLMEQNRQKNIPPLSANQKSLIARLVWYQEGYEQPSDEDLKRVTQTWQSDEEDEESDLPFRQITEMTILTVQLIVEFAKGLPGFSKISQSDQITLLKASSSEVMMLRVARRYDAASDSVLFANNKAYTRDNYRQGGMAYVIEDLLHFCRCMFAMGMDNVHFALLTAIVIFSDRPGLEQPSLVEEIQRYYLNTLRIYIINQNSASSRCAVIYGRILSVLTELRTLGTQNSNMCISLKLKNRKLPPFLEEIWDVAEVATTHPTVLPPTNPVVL
Sequence (P19793 whole entry partner, the tested form may be a part): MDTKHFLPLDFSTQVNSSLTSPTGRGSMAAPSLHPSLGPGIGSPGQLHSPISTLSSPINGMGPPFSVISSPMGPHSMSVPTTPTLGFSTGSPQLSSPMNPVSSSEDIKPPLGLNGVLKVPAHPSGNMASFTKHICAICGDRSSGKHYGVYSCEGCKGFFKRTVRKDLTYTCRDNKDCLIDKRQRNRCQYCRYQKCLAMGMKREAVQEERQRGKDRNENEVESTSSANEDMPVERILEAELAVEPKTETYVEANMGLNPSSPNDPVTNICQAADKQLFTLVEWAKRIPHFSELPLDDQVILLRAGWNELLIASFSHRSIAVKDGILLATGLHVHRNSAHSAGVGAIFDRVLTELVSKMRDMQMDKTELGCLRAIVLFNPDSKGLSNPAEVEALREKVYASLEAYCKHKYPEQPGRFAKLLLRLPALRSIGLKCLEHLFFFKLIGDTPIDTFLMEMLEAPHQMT
Procedure text: Z3 assay: β-galactosidase (LacZ) reporter gene fold induction in stably transformed human 293 kidney cells (clone Z3)
Format: cell-based
Particulars: single dose 33 μM; ligand treated / DMSO treated cells
Measurement label: Fold Induction Average, Z3 Assay (33 μM)
Reply briefly: the number, and no unit.

Reference set (4 entries):
IN: Quick check: Fold Induction Average, Z3 Assay (33 μM) of COc1cccc(C(=O)NC(C)(C)C(=O)c2cc(C)cc(C)c2)c1C ?
OUT: 312

IN: Do the same for COc1cccc(C(=O)NC2(C(=O)c3ccc4c(c3)OCO4)CCCC2)c1C please
OUT: 3

IN: Do the same for COc1cccc(C(=O)NC2(C(=O)c3cccc(C)c3)CCC(=O)CC2)c1C please
OUT: 102

IN: Do the same for COc1ccccc1C(=O)C(C)(NC(=O)c1cccc(OC)c1C)c1ccc(F)cc1 (stereo not drawn) please
OUT: 1

Next:
IN: Quick check: Fold Induction Average, Z3 Assay (33 μM) of CCNC(=O)N1CCCC(NC(=O)c2cccc(OC)c2C)(C(=O)c2cc(C)cc(C)c2)C1 (racemic) ?
OUT: 1

IN: Do the same for CC(=O)NC(C(=O)c1ccccc1)c1ccc(C)cc1 (stereo not drawn) please
OUT: 1

IN: Do the same for CCC(CC)(NC(=O)c1cccc(OC)c1C)C(=O)c1ccccc1C please
OUT: 4

IN: Do the same for COc1cccc(C(=O)NC2(C(=O)c3cc(C)cc(C)c3)CCCNC2)c1C (racemic) please
OUT: 7

IN: Do the same for COc1cccc(C(=O)NC2(C(=O)c3cccc(C)c3)CC2)c1C please
OUT: 12

IN: Do the same for COc1cccc(C(=O)NC2(C(=O)c3ccccc3)CCCC2)c1C please
OUT: 71

IN: Do the same for CC(C)(NC(=O)c1ccc2c(c1)OCO2)C(=O)c1ccccc1 please
OUT: 1

IN: Do the same for CCC(CC)(NC(=O)c1cccc(OC)c1C)C(=O)c1ccc(OC)cc1 please
OUT: 4

IN: Do the same for COc1cccc(C(=O)NC(C)(C)C(=O)c2ccccc2)c1C please
OUT: 1

IN: Do the same for COc1cccc(C(=O)NC2(C(=O)c3cc(C)cc(C)c3)CCN(C(=O)OC(C)C)CC2)c1C please
OUT: 4

IN: Do the same for COc1cccc(C(=O)NC(C(=O)c2cccc(C)c2)C(C)(C)C)c1C (stereo not drawn) please
OUT: 4

IN: Do the same for COc1cccc(C(=O)NC(C)(CC(C)C)C(=O)c2ccc(F)c(C)c2)c1C (stereo not drawn) please
OUT: 41

IN: Do the same for COc1cccc(C(=O)NC2(C(=O)c3cccc(C)c3)CCN(C(=O)OC(C)(C)C)CC2)c1C please
OUT: 3

IN: Do the same for CCNC(=O)N1CCC(NC(=O)c2cccc(OC)c2C)(C(=O)c2cc(C)cc(C)c2)CC1 please
OUT: 2

* * *

Study system: GAL4 DBD (1-147)-CfEcR(DEF)/VP16AD-βRXREF-LmUSPEF (Choristoneura fumiferana)
Sequence (O77240 191-513): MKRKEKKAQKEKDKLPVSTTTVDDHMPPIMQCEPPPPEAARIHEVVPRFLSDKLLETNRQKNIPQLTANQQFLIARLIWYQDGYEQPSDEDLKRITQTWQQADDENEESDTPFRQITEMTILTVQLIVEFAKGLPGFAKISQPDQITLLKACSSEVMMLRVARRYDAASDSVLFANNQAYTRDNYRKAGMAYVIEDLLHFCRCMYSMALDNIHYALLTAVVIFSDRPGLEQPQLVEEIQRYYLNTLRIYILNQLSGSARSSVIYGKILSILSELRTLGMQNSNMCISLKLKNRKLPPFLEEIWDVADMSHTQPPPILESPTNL
Sequence (P28702 296-455 partner limits assumed): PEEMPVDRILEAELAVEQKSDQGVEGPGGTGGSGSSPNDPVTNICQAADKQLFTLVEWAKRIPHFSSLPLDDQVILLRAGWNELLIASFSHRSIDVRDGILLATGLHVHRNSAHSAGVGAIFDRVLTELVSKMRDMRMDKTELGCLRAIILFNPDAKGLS
Procedure text: 27-63 assay: luciferase reporter gene expression in stable CHO cell clone 27-63
Particulars: single dose 33 μM; RLU ligand treated / RLU DMSO treated cells
Measurement label: Fold Induction Average, 27-63 Assay (33 μM)
Reply briefly: the number, and no unit.

IN: What measured Fold Induction Average, 27-63 Assay (33 μM) is associated with CCOC(=O)C(=O)N1CCC(NC(=O)c2cccc(OC)c2C)(C(=O)c2cc(C)cc(C)c2)CC1 on GAL4 DBD (1-147)-CfEcR(DEF)/VP16AD-βRXREF-LmUSPEF (Choristoneura fumiferana)?
OUT: 1

IN: Do the same for COc1cccc(C(=O)C(C)(C)NC(=O)c2ccccc2OC)c1 please
OUT: 1

IN: Do the same for CCNC(=O)N1CCC(NC(=O)c2cccc(OC)c2C)(C(=O)c2cc(C)cc(C)c2)CC1 please
OUT: 1

IN: Do the same for COc1cccc(C(=O)NC2(C(=O)c3cc(C)cc(C)c3)CCCN(S(C)(=O)=O)C2)c1C (racemic) please
OUT: 2

IN: Do the same for COc1ccccc1C(=O)C(C)(C)NC(=O)c1cccc(OC)c1C please
OUT: 9

IN: Do the same for COc1cccc(C(=O)NC2(C(=O)c3cc(C)cc(C)c3)CCCN(C(C)=O)C2)c1C (racemic) please
OUT: 1

IN: Do the same for COc1cccc(C(=O)NC2(C(=O)c3cc(C)cc(C)c3)CCN(S(C)(=O)=O)CC2)c1C please
OUT: 1

IN: Do the same for COc1cccc(C(=O)NC2(C(=O)c3cc(C)cc(C)c3)CCCNC2)c1C (racemic) please
OUT: 2
